system: A498 renal; experiment: NCI tumour cell line growth inhibition, 48 h
Where a SMILES comes first, the peptide text is derived from it. Bridges are numbered along the chain shown (N, C = ends). [ ]: non-standard residue; d: D form. The star is where a group is joined. Cbz = O=C(OCc1ccccc1)*; Aib = CC(C)(N)C(=O)O; OBn = c1ccc(CO*)cc1; βAla = NCCC(=O)O
reported-property: TGI

Q: Look up TGI: COC(=O)[C@]12CCC(C)(C)C[C@H]1C1=CC[C@@H]3[C@@]4(C)C/C(=C/c5cccnc5)C(=O)C(C)(C)[C@@H]4CC[C@@]3(C)[C@]1(C)CC2
Ans: 26.4 µM

Q: Looking for the measured TGI of Cc1cccc(N2C(=O)C(Cl)=C(Cl)C2=O)c1 , can you help?
Ans: > 100 µM

Q: Could you share which TGI value was measured for CC(=O)OC[C@H]1[C@@H]2C(CC[C@]13CO3)OC(=O)CC(C)[C@]2(C)CCc1ccoc1 (some centres undefined) ?
Ans: > 100 µM

Q: Can you share its TGI? I mean this compound: C[C@]12CC[C@@H]3c4ccc(O)cc4CC[C@H]3[C@@H]1CC[C@@H]2NS(=O)(=O)c1ccc(C(F)(F)F)cc1
Ans: 2.74 µM

Q: // lookup TGI for COc1ccc(C(=O)/C=C/c2cccnc2Nc2cc(OC)c(OC)c(OC)c2)cc1
Ans: 13.1 µM

Q: Recorded TGI of CCOC(=O)c1c(SC(=O)/C=C/c2ccccc2)n(-c2ccccc2)c(=S)n(-c2ccccc2)c1=O , please.
Ans: > 100 µM

Q: Endpoint output: TGI of O=c1c2ccccc2nnn1-c1n[nH]c2ccccc12 . Value?
Ans: > 100 µM

Q: Entry C1=C2C3=[N+](CCCC3)CC2Cc2ccsc21 (centres undefined) has what TGI?
Ans: > 100 µM

Q: Name the reported TGI value associated with the compound CC1(C)NC(=O)C(NC(=O)C(CC(=O)OCc2ccccc2)NC(=O)OCc2ccccc2)CCCCNC(=O)CCNC1=O (centres undefined) (Cbz-D(OBn)K[Aib][βAla]; lactam 2-C; configuration not given here)
Ans: > 100 µM

Q: Reported TGI for Oc1cc(O)c2c(c1)O[C@H](c1cc(O)c(O)c(O)c1)[C@H](O)C2 : what is it?
Ans: > 100 µM

Q: What measured TGI goes with CCC1(O)C(=O)OCc2c1cc1n(c2=O)Cc2cc3c(N)cccc3nc2-1 (centres undefined) ?
Ans: 1.39 µM

Q: Request the reported TGI associated with C=C(C)[C@@H](C(=O)OC)N1C(=O)c2ccccc2C1=O
Ans: > 100 µM

Q: // returns reported TGI for input CC(=O)[C@]1(O)Cc2c(O)c3c(c(O)c2C(OC2OC(C)C(O)C(O)C2F)C1)C(=O)c1ccccc1C3=O (some centres undefined)
Ans: 0.398 µM

Q: // query TGI value for entry CC1CN=C(Nc2ccc(S(N)(=O)=O)cc2)S1 (centres undefined)
Ans: > 100 µM

Q: Name the reported TGI value associated with the compound COc1ccccc1N1C(=O)/C(=C\c2cccc(Oc3ccccc3)c2)SC1c1ccccc1 (centres undefined)
Ans: > 100 µM

Q: Give its TGI value. Item: O=C(c1ccc(Cl)cc1Cl)N(C(=O)N1CCCCC1)c1ccccc1
Ans: > 100 µM

Q: Consider the compound CNC1C(=O)C(C)C(O)(C(CC(C)C(O)/C=C/C=C/CNC(=O)C(C)(C)C(O)\C(C)=C/C=C\C=C\Cc2cnc(C)o2)OC)C12C(=O)OC2COC (centres undefined) (tested in a mixture with another compound) and give its measured TGI.
Ans: > 79.3 µM

Q: What does the data say about its TGI? Entry: N#Cc1nc(COCCOCc2ccccc2)oc1N
Ans: > 100 µM

Q: Recorded TGI for COc1cc(Cn2c(-c3ccccc3)cc3c2-c2oncc2CC3)cc(OC)c1OC , please?
Ans: 2.06 µM
